# Tested on: Mus musculus
# EXPERIMENT NOTES: Percentage block of the hind-limb tonic-extensor seizure was determined after application of an electric shock to mice for 120 min followed by 100 mg/kg intraperitoneal dose
# Assay type: functional
For each record, write down the corresponding Block.
Give bare numbers, in %.

[
  {
    "MOLECULE": "CN(C)S(=O)(=O)OC[C@@]12OC[C@H]3OC(C)(C)OC3C1OC(C)(C)O2 (stereo partly specified)",
    "Block / %": 50
  },
  {
    "MOLECULE": "CNS(=O)(=O)OC[C@@]12OC[C@H]3OC(C)(C)OC3C1OC(C)(C)O2 (stereo partly specified)",
    "Block / %": 80
  },
  {
    "MOLECULE": "NS(=O)(=O)OCC(c1ccccc1)c1ccccc1",
    "Block / %": 0
  },
  {
    "MOLECULE": "CC1(C)OC2C3OC(C)(C)O[C@]3(COS(=O)(=O)Nc3ccccc3)OC[C@H]2O1 (stereo partly specified)",
    "Block / %": 0
  }
]

Batch lookup, Block per entry.
1. NS(=O)(=O)OCCc1ccccc1 [SULFAMIC ACID PHENETHYL ESTER]
2. CC1(C)O[C@@H]2CO[C@@]3(COS(=O)(=O)N=[N+]=[N-])OC(C)(C)OC3[C@@H]2O1 (stereo partly specified)

Reply:
70
50

Batch lookup, Block per entry.
1. CC1(C)C2CCC(COS(N)(=O)=O)C1C2 (stereo unspecified)
2. NS(=O)(=O)OCC1COc2ccccc2O1 (stereo unspecified)
3. CC1(C)OC2C3OC4(CCCCC4)O[C@@H]3CO[C@@]2(COS(N)(=O)=O)O1 (stereo partly specified)
4. CC1(C)OCC(COS(N)(=O)=O)O1 (stereo unspecified)
5. CC1(C)OC[C@@H]2O[C@@]3(COS(N)(=O)=O)OC(C)(C)OC3[C@@H]2O1 (stereo partly specified)

Reply:
0
30
0
90
20

====

For each record, write down the corresponding Block.
# System: Mus musculus
# EXPERIMENT NOTES: Percentage block of the hind-limb tonic-extensor seizure was determined after application of an electric shock to mice for 30 min followed by 100 mg/kg intraperitoneal dose
# Format: functional
Answers are plain numbers, in %.

[
  {
    "MOLECULE": "NS(=O)(=O)OCC(c1ccccc1)c1ccccc1",
    "UNIT OF MEASURE": "%",
    "Block": 0
  },
  {
    "MOLECULE": "NS(=O)(=O)OCCc1ccccc1",
    "UNIT OF MEASURE": "%",
    "Block": 90
  },
  {
    "MOLECULE": "CC1(C)OCC(COS(N)(=O)=O)O1 (stereo unspecified)",
    "UNIT OF MEASURE": "%",
    "Block": 50
  },
  {
    "MOLECULE": "CC1(C)C2CCC(COS(N)(=O)=O)C1C2 (stereo unspecified)",
    "UNIT OF MEASURE": "%",
    "Block": 10
  }
]

Batch lookup, Block per entry.
1. CC1(C)OC[C@@H]2O[C@@]3(COS(N)(=O)=O)OC(C)(C)OC3[C@@H]2O1 (stereo partly specified)
2. CC1(C)OC2C3OC4(CCCCC4)O[C@@H]3CO[C@@]2(COS(N)(=O)=O)O1 (stereo partly specified)
3. CNS(=O)(=O)OC[C@@]12OC[C@H]3OC(C)(C)OC3C1OC(C)(C)O2 (stereo partly specified)
4. CC1(C)OC2C3OC(C)(C)O[C@]3(COS(=O)(=O)Nc3ccccc3)OC[C@H]2O1 (stereo partly specified)

Reply:
30
0
30
0

Batch lookup, Block per entry.
1. CC1(C)OC2[C@H](O)[C@H](O)CO[C@@]2(COS(N)(=O)=O)O1 (stereo partly specified)
2. CN(C)S(=O)(=O)OC[C@@]12OC[C@H]3OC(C)(C)OC3C1OC(C)(C)O2 (stereo partly specified)
3. CC1(C)O[C@@H]2CO[C@@]3(COS(=O)(=O)N=[N+]=[N-])OC(C)(C)OC3[C@@H]2O1 (stereo partly specified)

Reply:
1: 0; 2: 30; 3: 20
